Tested on: CD2F1 mice, L1210 leukemia ip, survival T/C
experiment.summary: NCI In Vivo Anticancer Drug Screen. Data for tumor model L1210 Leukemia (intraperitoneal) in CD2F1 (CDF1) mice
cond: endpoint: mean survival time; dose: 200.0 mg/kg/injection; schedule: Q01DX009 (ip); vehicle: saline; higher = longer survival
Toxic doses and inconclusive results are not listed.
T/C by entry:

I have this molecule here, "C=CCOc1cccc(OCC=C)c1C" , and I need its recorded T/C.
100 % of control

I have this molecule here, "N#CN1CCOCC1" , and I need its recorded T/C.
110 % of control

Next:
I have this molecule here, CO[C@]12[C@@H](COC(=O)NCCO)C3=C(C(=O)C(C)=C(N)C3=O)N1C[C@@H]1[C@H]2N1C (some centres undefined) , and I need its recorded T/C.
112 % of control

I have this molecule here, OCCCN1CCCCC1CO (centres undefined) , and I need its recorded T/C.
98 % of control

I have this molecule here, CCCN1COC(OCC)C(C)(C)C1 (centres undefined) , and I need its recorded T/C.
109 % of control

I have this molecule here, "NC(=O)NOCc1ccc([N+](=O)[O-])cc1" , and I need its recorded T/C.
96 % of control

I have this molecule here, NC1=NCN(C2OC(CO)C(O)C2O)C(=O)N1 (centres undefined) , and I need its recorded T/C.
95 % of control

I have this molecule here, Nc1cc(Cl)c2ncn(C3OC(CO)C(O)C3O)c2n1 (centres undefined) , and I need its recorded T/C.
104 % of control

I have this molecule here, "CC(=O)Cc1nc(N)nc(Nc2ccc(Cl)c(Cl)c2)n1" , and I need its recorded T/C.
97 % of control

I have this molecule here, CN1C2CCC1C(CCl)C(O)C2 (centres undefined) , and I need its recorded T/C.
101 % of control

====

Tested on: CD2F1 mice, L1210 leukemia ip, survival T/C
experiment.summary: NCI In Vivo Anticancer Drug Screen. Data for tumor model L1210 Leukemia (intraperitoneal) in CD2F1 (CDF1) mice
cond: endpoint: mean survival time; dose: 100.0 mg/kg/injection; schedule: Q04DX003 (ip); vehicle: saline with Tween-80; higher = longer survival
Inconclusive results and toxic doses are left out.
experimental.endpoint: T/C

// worked examples, T/C included
I have this compound here, "OC(c1c(F)c(F)c(C(O)(C(F)(F)F)C(F)(F)F)c(F)c1F)(C(F)(F)F)C(F)(F)F" , and I need its recorded T/C.
96 % of control

I have this compound here, "O=S1Cc2ccccc2C1" , and I need its recorded T/C.
98 % of control

I have this compound here, "C1=C(Nc2ccccc2)C(=Nc2ccccc2)C=C(Nc2ccccc2)C1=Nc1ccccc1" , and I need its recorded T/C.
98 % of control

Next:
I have this compound here, "COc1ccc(/C=C/c2ccc3ccccc3n2)c(OC)c1" , and I need its recorded T/C.
96 % of control

I have this compound here, C=C(CC(=O)O)C(=O)O (tested in a mixture with another compound) , and I need its recorded T/C.
102 % of control

I have this compound here, "CSc1nc(N)cc(N)n1" , and I need its recorded T/C.
98 % of control

====

Tested on: CD2F1 mice, L1210 leukemia ip, survival T/C
experiment.summary: NCI In Vivo Anticancer Drug Screen. Data for tumor model L1210 Leukemia (intraperitoneal) in CD2F1 (CDF1) mice
cond: endpoint: mean survival time; dose: 400.0 mg/kg/injection; schedule: Q01DX009 (ip); vehicle: saline; higher = longer survival
Inconclusive results and toxic doses are left out.
T/C by entry:

I have this compound here, O=C(O)C1CCN1C1CCCCC1 (centres undefined) , and I need its recorded T/C.
98 % of control

I have this compound here, CCCOC(=O)C(SCCN(C)C)c1ccccc1 (centres undefined) , and I need its recorded T/C.
98 % of control

I have this compound here, "NC(=O)NOCc1ccc([N+](=O)[O-])cc1" , and I need its recorded T/C.
95 % of control

I have this compound here, "CCOCCNc1ccc(S(=O)(=O)c2ccc(N)cc2)cc1N" , and I need its recorded T/C.
92 % of control
